target: Ras farnesyl transferase (Homo sapiens, UniProt P49354+P49356); test: Ras farnesyl transferase inhibiting activity (filter-binding, tritium-farnesylpyrophosphate, Ras-CVLS substrate); conditions: recombinant Ras farnesyl transferase, 30 minutes at 37° C., read-out: Ftase IC50
pIC50: −log10 of the molar value.
endpointName: pIC50

pIC50 measured on CC1(c2cccc3ccccc23)C(=O)N(CCCc2cncn2Cc2ccc(C#N)cc2)C(=O)N1C(=O)c1ccco1 (centres unmarked) [Compound 56] = 7.10

pIC50 measured on CC1(c2cccc3ccccc23)C(=O)N(CCCc2cncn2Cc2ccc(C#N)cc2)C(=O)N1Cc1ccco1 (centres unmarked) [Compound 55] = 7.35

pIC50 measured on COCCOCN1C(=O)N(CCCc2cncn2Cc2ccc(C#N)cc2)C(=O)C1(C)c1cccc2ccccc12 (centres unmarked) [Compound 50] = 7.26

pIC50 measured on CC1(c2cccc3ccccc23)C(=O)N(CCCc2cncn2Cc2ccc(C#N)cc2)C(=O)N1Cc1cccc(C#N)c1 (centres unmarked) [Compound 54] = 7.30

[1] CC1(c2cccc3ccccc23)C(=O)N(CCCn2ccnc2)C(=O)N1Cc1c(F)c(F)c(F)c(F)c1F (centres unmarked) [Compound 17]
[2] CC1(c2cccc3ccccc23)C(=O)N(CCCc2cncn2Cc2ccc(C#N)cc2)C(=O)N1Cc1ccccc1 (centres unmarked) [Compound 53]
Task: Choose between 1 and 2 : whose measured pIC50 value is numerically larger? Give the chosen item's label as your response.
Output: 2

* * *

molecular target: Ras farnesyl transferase (Homo sapiens, UniProt P49354+P49356); assay: Ras farnesyl transferase inhibiting activity (filter-binding, tritium-farnesylpyrophosphate, Ras-CVLS substrate); conditions: recombinant Ras farnesyl transferase, 30 minutes at 37° C., read-out: Ftase IC50
pIC50: −log10 of the molar value.
endpointName: pIC50

The value of pIC50 recorded for CC1(c2cccc3ccccc23)C(=O)N(CCCn2ccnc2)C(=O)N1C(=O)Nc1cccc(C#N)c1 (centres unmarked) when tested on Ras farnesyl transferase (Homo sapiens, UniProt P49354+P49356) reads 6.70

The value of pIC50 recorded for CC1(c2cccc3ccccc23)C(=O)N(CCCn2ccnc2)C(=O)N1Cc1ccc(C(=O)O)cc1 (centres unmarked) when tested on Ras farnesyl transferase (Homo sapiens, UniProt P49354+P49356) reads 6.70

[P] CCN1C(=O)N(CCCc2cncn2Cc2ccc(C#N)cc2)C(=O)C1(C)c1cccc2ccccc12 (centres unmarked)
[Q] CC1(c2cccc3ccccc23)C(=O)N(CCCn2ccnc2)C(=O)N1Cc1ccc(C(=O)N2CCN(C(=O)OCc3ccccc3)CC2)cc1 (centres unmarked)
[R] N#Cc1ccc(Cn2cncc2CN2C(=O)C(CC(=O)N3CCOCC3)N(Cc3cccc4ccccc34)C2=O)cc1 (centres unmarked)
[S] COc1ccc(C(=O)N2C(=O)N(CCCn3ccnc3)C(=O)C2(C)c2cccc3ccccc23)cc1 (centres unmarked)
[T] CCOC(=O)CN1C(=O)N(Cc2cncn2Cc2ccc(C#N)cc2)C(=O)C1(C)c1cccc2ccccc12 (centres unmarked)
Task: Descending sort on pIC50 required. Sort the labels as requested; that list is your answer.
Output: P, T, R, S, Q
(P: 7.74, T: 7.30, R: 7.05, S: 6.15, Q: 5.30)

[a] CC1(c2cccc3ccccc23)C(=O)N(CCCn2ccnc2)C(=O)N1C(=O)N1CCOCC1 (centres unmarked)
[b] CSCCC(NC(=O)CN1C(=O)N(CCCc2cncn2Cc2ccc(C#N)cc2)C(=O)C1(C)c1cccc2ccccc12)C(=O)O (centres unmarked)
[c] CC1(c2cccc3ccccc23)C(=O)N(CCCn2ccnc2)C(=O)N1Cc1ccc(S(C)(=O)=O)cc1 (centres unmarked)
[d] CSCCC(NC(=O)CN1C(=O)N(Cc2cnc[nH]2)C(=O)C1(C)c1cccc2ccccc12)C(=O)O (centres unmarked)
[e] CSCCC(NC(=O)CN1C(=O)N(CCCc2c[nH]cn2)C(=O)C1(C)c1cccc2ccccc12)C(=O)O (centres unmarked)
Task: Descending sort on pIC50 required. Sort the labels as requested; that list is your answer.
Output: e, b, d, c, a

[I] CCOC(=O)CN1C(=O)N(CCCc2cncn2Cc2ccc(C#N)cc2)C(=O)C1(C)c1cccc2ccccc12 (centres unmarked)
[II] CSc1ccc(CN2C(=O)N(CCCn3ccnc3)C(=O)C2(C)c2cccc3ccccc23)cc1C#N (centres unmarked)
Task: Choose between I and II : whose measured pIC50 value is numerically larger? Give the chosen item's label as your response.
Output: I

[I] CC1(c2cccc3ccccc23)C(=O)N(CCCc2cncn2Cc2ccc(C#N)cc2)C(=O)N1CC(=O)O (centres unmarked)
[II] CC1(c2cccc3ccccc23)C(=O)N(CCCn2ccnc2)C(=O)N1Cc1cccc(Oc2ccccc2)c1 (centres unmarked)
[III] CSCc1ccc(CN2C(=O)N(CCCn3ccnc3)C(=O)C2(C)c2cccc3ccccc23)cc1 (centres unmarked)
[IV] COCCN(C)C(=O)CC1C(=O)N(Cc2cncn2Cc2ccc(Br)cc2)C(=O)N1Cc1cccc2ccccc12 (centres unmarked)
Task: Please order the records by their reported pIC50, lowest number first. Sort the labels as requested; that list is your answer.
Output: IV, II, III, I
(IV: 5.82, II: 6.14, III: 6.68, I: 7.72)

[P] CC1(c2cccc3ccccc23)C(=O)N(CCCn2ccnc2)C(=O)N1Cc1ccccc1C#N (centres unmarked)
[Q] CC1(c2cccc3ccccc23)NC(=O)N(Cc2cncn2Cc2ccc(C#N)cc2)C1=O (centres unmarked)
[R] CCCCN1C(=O)N(CCCc2cncn2Cc2ccc(C#N)cc2)C(=O)C1(C)c1cccc2ccccc12 (centres unmarked)
Task: Descending sort on pIC50 required. Sort the labels as requested; that list is your answer.
Output: R, Q, P
(R: 7.26, Q: 6.36, P: 6.05)
